Test: protein stability index of a GFP-peptide fusion (yeast GPS) (PSI 1-4); higher = more stable; sorted into four equal gates, so the index is relative within each strain
Conditions: ubr1∆
Decide using protein stability index: a value greater than or equal to 3 is met, a smaller one is not met.

Please check the record LIKAKNFLVFQGDVEQI [SMC1] and state if its protein stability index is at or above 3.
not met

API: above_or_equal(metric=protein stability index, cutoff=3) for item PVKVSGTIKKIEQFAMR [POP5]
not met

Does KTADVKRQYVKQFLTKD [RPL20A] have a reported protein stability index of at least 3?
not met

Does the sequence LLPPIKIELIKNNLLIP [RPN12] have recorded protein stability index that is 3 or more?
not met

// inclusive: protein stability index at least 3? input: LLDTNSLEENAMSTVTL [SKI6]
not met

Quick check: does TFLLNNKNIDIGLLNKS [RPN2] have protein stability index greater than or equal to 3?
not met

Say whether LPDELTLSYDDISAAIV [DLS1] shows protein stability index of 3 or more.
not met

Assess whether reported protein stability index for LSPSGHKTFLVANVKDL [RPL32] sits at 3 or higher.
not met

Test whether the sequence RNMIIVPEMIGSVVGIY [RPS15] records protein stability index of 3 or higher.
not met

Check this sequence for protein stability index at or above 3: RIYTNSFIDIMEVLGIE [RPO21]
not met

Please tell me: is the sequence DRMAKYLHIRDKILQLN [PGD1] at or over 3 in terms of protein stability index?
not met

Assess whether reported protein stability index for LPKAWISLAVEGEPVNS [COR1] sits at 3 or higher.
not met

Tell me whether protein stability index is at least 3 here: SMFGSDQKTGRAKSSSH [RPN4]
not met

Please indicate if the recorded protein stability index for SVQNLDQLLTDLIETSF [NUT1] meets or exceeds 3.
not met

Would you say DTVIIFDTDWNPHQDLQ [SNF2] shows protein stability index at minimum 3?
not met

Does the sequence VDNENNKPAIKEDSTIQ [SWI3] have recorded protein stability index that is 3 or more?
met

Check this sequence for protein stability index at or above 3: PVTLAKVIKVLGRTGSR [RPS28A]
not met

Say whether PLIMATCGSKGSTLNVS [RPO31] shows protein stability index of 3 or more.
not met

Item LTATPNSINKTTVPFKE [POP1] with protein stability index of 3 or above?
not met

Textbook exercise: given the entry SCHGHFGHLKLALPVFH [RPO31] , state whether its protein stability index is greater than or equal to 3.
not met

Is reported protein stability index greater than or equal to 3 here: KNAQYHLLVKQGDGLLT [RPN7]
not met

Does protein stability index meet or surpass 3 for PSCVYNLIGVITHQGAN [UBP6] ?
not met

Given the entry TCGSKGSTLNVSQMVAV [RPO31] , answer whether its protein stability index meets or surpasses 3.
not met

Item GEKNFTSAHLKLKEMQK [SMC4] with protein stability index of 3 or above?
met

Hi, just wondering whether KFPETSYPILNESSTFL [SIN4] shows protein stability index of 3 or higher.
not met

Form field: protein stability index at least 3? Entry: LGCTLVTLLANVRALYM [RMP1]
not met

protein stability index >= 3 for NLGEYYAQIGDKDNAEK [RPN7] ?
not met

Given the entry EVINKEIENATKDIFPL [RPS1A] , answer whether its protein stability index meets or surpasses 3.
met

Check this sequence for protein stability index at or above 3: DDDAVRREVQIQLQEFL [NSL1]
met

# check: protein stability index of GVKNNLLTPKSGEPIIA [RPO31] is greater than or equal to 3
not met

Could you tell me if the measured protein stability index of MAGVKAYELRTKSKEQL [RPL35A] reaches 3 or more?
met

Is it the case that LMLKKLKNSIMSFIFPS [YML031W/NDC1] has protein stability index reaching or exceeding 3?
not met

Check the entry CHDELKALPMLEQVEFE [MED4] : does protein stability index equal or exceed 3?
met

Form field: protein stability index at least 3? Entry: MFNDLNSMDISMFSGLD [MED2]
met

// inclusive: protein stability index at least 3? input: RSRKTVKAQRPITGASL [RPL24A]
met

Item GNKKYRALRIETGNFSW [RPS8A] with protein stability index of 3 or above?
not met

Determine whether measured protein stability index meets or exceeds 3 for NFLSKIRNINVQDALLT [SNF2]
not met

# check: protein stability index of SNAVTQTNIWEENWDDV [SEM1] is greater than or equal to 3
met

Record RALFRQLKRWYWQFNGV [RMP1] ; criterion: protein stability index no lower than 3. Met?
not met

Is protein stability index at least 3? Consider KERLVRDKKEKKQAQKQ [SMB1]
met

Quick check: does SLNYKFTTNKSKDVSRL [SRP21] have protein stability index greater than or equal to 3?
met

Textbook exercise: given the entry FVCRGMAATQTIEQSPR [ECM29] , state whether its protein stability index is greater than or equal to 3.
not met

Decide: is the reported value of protein stability index for NKGRAVYINPSGEKIDF [BRR2] equal to or greater than 3?
met

Identify whether the reported protein stability index of the following sequence is 3 or greater: YNRYRDLMISCLMNQET [MTR3]
not met

Form field: protein stability index at least 3? Entry: LAIKDSKKRFAAIWTLC [RPO21]
not met
